Test: Stability in an aqueous solution (HPLC residual ratio)
Settings: Britton-Robinson's buffer pH 7, before incubation
Lab note: anything with Peak area (mAU × sec) initial below 4000 mAU × sec is marked True; values at 4000 mAU × sec or higher are marked False.

Here's what some known entries look like.
- COMPOUND: "CCC(O)C(C)C1OC1CC(C)(O)/C=C/C=C(\\C)C1OC(=O)CC(O)CCC(C)(O)C(OC(=O)N(C)CCN(CC)CC)/C=C/C1C (centres unmarked)"
  ASSIGNED_CATEGORY: "True"
- COMPOUND: "CCC(O)C(C)C1OC1CC(C)(O)/C=C/C=C(\\C)C1OC(=O)CC(O)CCC(C)(O)C(OC(=O)N2CCC(N3CCCCC3)CC2)/C=C/C1C (centres unmarked)"
  ASSIGNED_CATEGORY: "False"
- COMPOUND: "CCC(O)C(C)C1OC1CC(C)(O)/C=C/C=C(\\C)C1OC(=O)CC(O)CCC(C)(O)C(OC(=O)N2CCCN(C)CC2)/C=C/C1C (centres unmarked)"
  ASSIGNED_CATEGORY: "False"
- COMPOUND: "CCC(O)C(C)C1OC1CC(C)(O)/C=C/C=C(\\C)C1OC(=O)CC(O)CCC(C)(OC)C(OC(=O)N2C[C@@H]3C[C@H]2CN3CC)/C=C/C1C (stereo in doubt)"
  ASSIGNED_CATEGORY: "False"

Now look at this entry.
API: query returns whether the compound falls strictly under 4000 mAU × sec in Peak area (mAU × sec) initial. Query: CCC(O)C(C)C1OC1CC(C)(O)/C=C/C=C(\C)C1OC(=O)CC(O)CCC(C)(OC(=O)N2CCCN(CC)CC2)C(OC(C)=O)/C=C/C1C (centres unmarked) True
